Where these numbers come from: patent US20230029835A1

- EXPERIMENTAL TARGET: T1, human TSLP recombinant protein (human, UniProt Q969D9 29-159, biotinylated in the blocking and cell-binding assays (sites not given))
- T1 construct: also called biotinylated human TSLP protein
- METHOD DESCRIPTION: ELISA on coated human TSLP;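 further: binding detected by TMB colour development for 10 min at 37 °C, then absorbance measured at 450 nm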
Catalogue of EC50 readings, one per entry.
Field format: number, assumed nM, no unit text.

Ab25 (antibody, V domains shown, Humanized; also called h39G5VHv6/h71G4VKv1) VH: QVQLVQSGAEVKKPGSSVKVSCKASGYTFTDYWMHWVRQAPGQGLEWMGTIDNSDSDTSLNQKFQGRVTLTVDTSTSTAYMELSSLRSEDTAVYYCARSLDGYYDYWGQGTLVTVSS VL: DIQMTQSPSSLSASVGDRVTITCRTSENIYSYLAWYQQKPGKAPKLLIYFAKTLTDGVPSRFSGSGSGTDFTLTISSLQPEDFATYYCQHHYGTPWTFGQGTKVEIK; 0.27

Ask: Give the measured EC50 of Ab19 (antibody, V domains shown, Humanized; also called h71G4VHv1/h71G4VKv1) VH: QVQLVQSGAEVKKPGSSVKVSCKASGYTFTDYWMHWVRQAPGQGLEWMGTIDNSDSDTTYNPSFQGHVTISADKSISTAYLQWSSLKASDTAMYYCARSVDGYLDYWGQGTLVTVSS VL: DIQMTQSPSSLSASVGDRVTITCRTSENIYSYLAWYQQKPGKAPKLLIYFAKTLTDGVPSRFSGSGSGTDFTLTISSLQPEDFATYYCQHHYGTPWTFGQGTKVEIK .
Reply: 0.27
